# METHOD: Efflux ratio of permeability of the compound in human Caco2 cells
# Assay type: ADME, cell-based
# STATED CONDITIONS: Caco-2

- STRUCTURE: "CN1CCN(c2ccc(-c3c(-c4cc(F)c(O)c(F)c4)cnc4[nH]ccc34)cc2)CC1"
  efflux ratio: 0.8

---

# TARGET OF ASSAY: UniProtKB P07949
# Sequence (P07949 whole entry): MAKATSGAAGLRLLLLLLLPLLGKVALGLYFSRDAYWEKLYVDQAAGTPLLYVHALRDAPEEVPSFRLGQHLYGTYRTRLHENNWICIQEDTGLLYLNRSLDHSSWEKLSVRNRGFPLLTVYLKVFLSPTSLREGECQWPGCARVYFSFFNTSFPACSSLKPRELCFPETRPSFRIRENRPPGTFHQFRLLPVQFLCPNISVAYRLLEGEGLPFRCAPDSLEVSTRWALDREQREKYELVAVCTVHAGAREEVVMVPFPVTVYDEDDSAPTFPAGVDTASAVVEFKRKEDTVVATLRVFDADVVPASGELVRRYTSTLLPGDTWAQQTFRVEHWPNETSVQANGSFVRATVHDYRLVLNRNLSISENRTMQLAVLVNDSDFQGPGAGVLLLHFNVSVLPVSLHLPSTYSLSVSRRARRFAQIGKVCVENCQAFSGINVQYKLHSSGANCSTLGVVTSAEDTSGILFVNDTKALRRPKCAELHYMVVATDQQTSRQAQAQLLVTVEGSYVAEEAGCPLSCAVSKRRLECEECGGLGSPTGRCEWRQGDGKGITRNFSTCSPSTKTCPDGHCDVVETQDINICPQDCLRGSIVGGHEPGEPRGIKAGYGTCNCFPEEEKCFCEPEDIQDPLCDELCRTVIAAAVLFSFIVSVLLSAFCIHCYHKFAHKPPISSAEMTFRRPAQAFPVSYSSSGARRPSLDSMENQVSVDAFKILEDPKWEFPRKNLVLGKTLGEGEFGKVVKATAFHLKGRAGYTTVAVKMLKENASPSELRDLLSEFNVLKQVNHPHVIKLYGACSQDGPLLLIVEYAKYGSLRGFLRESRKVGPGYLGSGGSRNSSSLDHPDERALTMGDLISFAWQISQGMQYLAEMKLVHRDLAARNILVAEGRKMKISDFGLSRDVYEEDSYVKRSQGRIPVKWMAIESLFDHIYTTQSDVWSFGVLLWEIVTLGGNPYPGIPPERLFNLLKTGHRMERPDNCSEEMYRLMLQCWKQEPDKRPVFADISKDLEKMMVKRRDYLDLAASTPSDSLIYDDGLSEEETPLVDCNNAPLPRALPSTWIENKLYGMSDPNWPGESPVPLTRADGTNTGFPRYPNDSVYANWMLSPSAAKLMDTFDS
pIC50: −log10 of the molar value.

- STRUCTURE: "CN1CCN(c2ccc(-c3c(-c4cc(F)c(O)c(F)c4)cnc4[nH]ccc34)cc2)CC1"
  pIC50: "> 6.00"

---

# TARGET OF ASSAY: Ribosomal protein S6 kinase beta-1 (Homo sapiens)
# Sequence (P23443 whole entry): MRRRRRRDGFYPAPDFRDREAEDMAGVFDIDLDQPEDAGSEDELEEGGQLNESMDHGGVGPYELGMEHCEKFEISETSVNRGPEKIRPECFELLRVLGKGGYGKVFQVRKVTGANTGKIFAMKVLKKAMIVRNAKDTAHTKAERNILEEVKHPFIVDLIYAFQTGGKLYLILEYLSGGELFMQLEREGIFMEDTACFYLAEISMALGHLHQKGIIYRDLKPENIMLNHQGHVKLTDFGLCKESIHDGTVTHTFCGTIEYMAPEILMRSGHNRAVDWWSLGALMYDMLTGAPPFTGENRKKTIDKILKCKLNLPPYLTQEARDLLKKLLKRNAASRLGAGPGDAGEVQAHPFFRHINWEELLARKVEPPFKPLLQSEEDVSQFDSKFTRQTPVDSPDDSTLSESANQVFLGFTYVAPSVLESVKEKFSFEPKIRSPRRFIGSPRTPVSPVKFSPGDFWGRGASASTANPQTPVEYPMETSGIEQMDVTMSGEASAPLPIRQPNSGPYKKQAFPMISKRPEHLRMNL
pIC50: −log10 of the molar value.
PROPERTY LABEL: pIC50

- STRUCTURE: "CN1CCN(c2ccc(-c3c(-c4cc(F)c(O)c(F)c4)cnc4[nH]ccc34)cc2)CC1"
  PROPERTY LABEL: "pIC50"
  READOUT VALUE: 6.92
